The reported measurements were obtained from patent EP1444982A1.

Each entry below carries its recorded inhibition at 30 µM.
Tested system: MAPK1 (h) (Homo sapiens, UniProt P27361)
Sequence (P27361 whole entry): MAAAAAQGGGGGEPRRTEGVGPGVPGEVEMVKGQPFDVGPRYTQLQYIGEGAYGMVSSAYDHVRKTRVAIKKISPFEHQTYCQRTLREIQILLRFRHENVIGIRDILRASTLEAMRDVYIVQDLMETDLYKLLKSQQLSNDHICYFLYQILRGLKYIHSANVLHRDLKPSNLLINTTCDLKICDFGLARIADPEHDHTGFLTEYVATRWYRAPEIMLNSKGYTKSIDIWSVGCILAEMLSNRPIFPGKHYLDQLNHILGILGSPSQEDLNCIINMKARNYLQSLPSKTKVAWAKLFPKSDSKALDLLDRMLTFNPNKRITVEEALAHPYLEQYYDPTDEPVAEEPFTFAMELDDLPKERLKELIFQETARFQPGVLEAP
Assay text: Kinase inhibition assay: MAPK1
Type: biochemical
Condition context: 30µM Testsubstanz (100 µM ATP); read-out: Hemmung von Kinasen in % MAPK1 (h)
The response must be a number in % with no trailing unit.

compound=Cn1c(-c2ccccc2)nc2c(Sc3ccccc3)ncnc21 obs_value=10
compound="Cn1c(-c2ccc([S+](C)[O-])cc2)nc2c(Sc3ccc(F)cc3)ncnc21 (centres unmarked)" obs_value=0
compound=Nc1ncnc2ncn(Cc3ccc(F)cc3)c12 obs_value=26
compound=Cn1c(-c2ccc(S(C)(=O)=O)cc2)nc2c(Sc3ccccc3)ncnc21 obs_value=9
compound="Nc1ncnc2c1ncn2Cc1ccc(F)cc1 [Verbd. 42a, 9-(4-Fluoro-benzyl)-9H-purin-6-ylamin]" obs_value=17

**Query** What value of inhibition at 30 µM on MAPK1 (h) (Homo sapiens, UniProt P27361) does c1ccc(CSc2ncnc3[nH]cnc23)cc1 have?
**Result** 15

**Query** What value of inhibition at 30 µM on MAPK1 (h) (Homo sapiens, UniProt P27361) does c1ccc(Sc2ncnc3[nH]cnc23)cc1 have?
**Result** 3

**Query** What value of inhibition at 30 µM on MAPK1 (h) (Homo sapiens, UniProt P27361) does c1ccc(Nc2ncnc3[nH]cnc23)cc1 have?
**Result** 22

====

Tested system: Lck (h) (Homo sapiens, UniProt P06239)
Sequence (P06239 whole entry): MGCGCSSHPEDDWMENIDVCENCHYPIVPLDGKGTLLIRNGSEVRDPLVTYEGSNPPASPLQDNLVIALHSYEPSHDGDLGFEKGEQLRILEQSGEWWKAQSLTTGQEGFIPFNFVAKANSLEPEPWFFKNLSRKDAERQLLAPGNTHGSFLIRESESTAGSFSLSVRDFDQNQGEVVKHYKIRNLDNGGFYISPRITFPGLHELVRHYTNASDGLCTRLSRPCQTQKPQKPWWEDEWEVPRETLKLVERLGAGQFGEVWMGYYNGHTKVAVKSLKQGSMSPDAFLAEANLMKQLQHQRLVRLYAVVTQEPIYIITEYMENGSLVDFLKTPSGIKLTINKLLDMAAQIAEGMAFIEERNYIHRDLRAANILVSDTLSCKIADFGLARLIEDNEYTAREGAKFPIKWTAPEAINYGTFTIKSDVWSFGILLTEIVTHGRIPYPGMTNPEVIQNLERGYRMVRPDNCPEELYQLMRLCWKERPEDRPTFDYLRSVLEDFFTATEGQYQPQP
Assay text: Kinase inhibition assay (33P-ATP, P30 filter, scintillation counting): Lck
Type: biochemical
Condition context: 30µM Testsubstanz (100 µM ATP); read-out: Hemmung von Kinasen in % Lck (h)
Readout type: inhibition at 30 µM
Please answer in the form of a number followed by its unit of measurement.

Known results for compounds:
compound="Cn1c(-c2ccccc2)nc2c(Sc3ccc(F)cc3)ncnc21 [Verbd. 24]" readout_type="inhibition at 30 µM" obs_value=20%
compound="Fc1ccc(Sc2ncnc3[nH]ccc23)cc1 [Verbd. 53]" readout_type="inhibition at 30 µM" obs_value=52%
compound="Fc1ccc(Nc2ncnc3[nH]cnc23)cc1 [Verbd. 2, (4-Fluoro-phenyl)-(9H-purin-6-yl)-amin]" readout_type="inhibition at 30 µM" obs_value=42%

**Query** Any idea what its inhibition at 30 µM is? The compound is c1ccc(Sc2ncnc3[nH]cnc23)cc1 [Verbd. 15, 6-Phenylsulfanyl-9H-purin]
**Result** 5%

**Query** Any idea what its inhibition at 30 µM is? The compound is Nc1ncnc2c1ncn2Cc1ccc(F)cc1 [Verbd. 42a, 9-(4-Fluoro-benzyl)-9H-purin-6-ylamin]
**Result** 19%

**Query** Any idea what its inhibition at 30 µM is? The compound is Cn1c(C#CCCO)nc2c(Sc3ccccc3)ncnc21 [Verbd. 79]
**Result** 11%

**Query** Any idea what its inhibition at 30 µM is? The compound is Fc1ccc(Cn2cnc3c(Sc4ccc(F)cc4)ncnc32)cc1 [Verbd. 77]
**Result** 16%

====

Each entry below carries its recorded inhibition at 30 µM.
Tested system: PKB (h) (Homo sapiens, UniProt P31749)
Sequence (P31749 whole entry): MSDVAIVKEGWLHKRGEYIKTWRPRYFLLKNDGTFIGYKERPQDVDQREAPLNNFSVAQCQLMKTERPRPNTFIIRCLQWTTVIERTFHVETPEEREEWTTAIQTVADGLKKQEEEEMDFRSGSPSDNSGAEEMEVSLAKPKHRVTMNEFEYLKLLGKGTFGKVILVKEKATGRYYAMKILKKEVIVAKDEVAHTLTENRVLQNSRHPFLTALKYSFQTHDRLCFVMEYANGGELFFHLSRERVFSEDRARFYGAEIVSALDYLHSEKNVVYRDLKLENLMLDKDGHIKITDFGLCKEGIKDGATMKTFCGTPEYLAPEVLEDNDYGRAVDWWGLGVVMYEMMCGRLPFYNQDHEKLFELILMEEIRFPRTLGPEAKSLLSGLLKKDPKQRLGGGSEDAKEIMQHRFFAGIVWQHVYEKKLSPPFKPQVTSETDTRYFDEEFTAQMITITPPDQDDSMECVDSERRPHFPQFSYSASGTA
Assay text: Kinase inhibition assay (33P-ATP, P30 filter, scintillation counting): PKB
Assay type: biochemical
Condition context: 40 min; 30µM Testsubstanz (100 µM ATP); read-out: Hemmung von Kinasen in % PKB (h)
The response must be a number in % with no trailing unit.

compound=Cn1c(-c2ccccc2)nc2c(Sc3ccccc3)ncnc21 obs_value=42

**Query** Any idea what its inhibition at 30 µM is? The compound is Fc1ccc(Cn2cnc3c(Sc4ccc(F)cc4)ncnc32)cc1
**Result** 0

**Query** Any idea what its inhibition at 30 µM is? The compound is c1ccc(Sc2ncnc3[nH]cnc23)cc1
**Result** 0

**Query** Any idea what its inhibition at 30 µM is? The compound is COc1ncnc2ncn(Cc3ccc(F)cc3)c12
**Result** 0

**Query** Any idea what its inhibition at 30 µM is? The compound is Nc1ncnc2ncn(Cc3ccc(F)cc3)c12
**Result** 0
